System: MOLT-4 leukemia
ASSAY: NCI tumour cell line growth inhibition, 48 h
VALUE_KIND: TGI

For every item in the list below, what is its measured TGI?
1. Cn1ccnc1C(c1nccn1C)C(C)(C)[N+](=O)[O-]
2. Cc1ccc(S(=O)(=O)NC(=O)NCCC(=O)O)cc1
3. CC(C)COC(=O)N1N=NC2C3OC(CC3=O)C21 (stereo not drawn)

Response:
1. > 100 µM
2. > 100 µM
3. > 100 µM
